Item-by-item account of methylation on microRNA, FTD resistant strain
Tested on: DLD-1 cell strain, 5-FU resistant strain, FTD resistant strain
Parameters: unit not given here
Conditions: RIP sequencing; DLD-1 FTD resistant strain

miR-3131 (UCGAGGACUGGUGGAAGGGCCUU; chemistry not fully specified; listed as Homo sapiens) | 10

Entry miR-378i (ACUGGACUAGGAGUCAGAAGG; chemistry not fully specified; listed as Homo sapiens) , methylation on microRNA, FTD resistant strain reported as 3

// field: methylation on microRNA, FTD resistant strain; key: miR-378e (ACUGGACUUGGAGUCAGGA; chemistry not fully specified; listed as Homo sapiens) ; value = 6
